target under test: Nuclear receptor ROR-gamma (Mus musculus)
measurement description: qHTS for inhibitors of ROR gamma transcriptional activity; further: nearly all actives have a fitted effect of over 60% in size
settings: Drosophila S2 Gal4-RORgamma UAS-luciferase reporter, 20 h; series mostly up to 53.6 µM
About 17,000 (5.5%) of roughly 310,000 compounds were called active. Not shown: some 11% with an inconclusive outcome. The call rests on the fitted dose curve; in most records, active means well fitted inhibition curve with a large enough effect; inconclusive means small, poorly fitted or top-dose-only effect, or effect the other way; inactive means no such curve, though single readings can be large or run the other way. Only a selection was taken, and actives are over-represented in it overall.
Use one of these outcomes when replying: true for active, false for inactive

# example entries with known answers
1. CC(C)(C)c1nnc(N/N=C/c2ccc(O)cc2)n(N)c1=O :: true
2. CC(C)NC(=O)CCCn1c(=S)[nH]c2cc3c(cc2c1=O)OCO3 :: false
3. O=C(CN1C(=O)COc2ccc(Cl)cc21)Nc1ccc(N2CCOCC2)cc1 :: false
4. CC1CCCCC1NC(=O)/C(C#N)=C/C=C/c1ccccc1[N+](=O)[O-] (stereo not drawn) :: true
5. O=C(NCc1cccs1)c1ccc(CS(=O)Cc2ccccc2Cl)o1 (stereo not drawn) :: false

Task item: Outcome? COc1cc(NC(=O)CN2C(=O)NC(C)(c3ccc(OC(F)F)cc3)C2=O)cc(OC)c1OC (stereo not drawn)
Reply: false

* * *

target under test: Nuclear receptor ROR-gamma (Mus musculus) (UniProt P51450)
Sequence (P51450 whole entry, looked up): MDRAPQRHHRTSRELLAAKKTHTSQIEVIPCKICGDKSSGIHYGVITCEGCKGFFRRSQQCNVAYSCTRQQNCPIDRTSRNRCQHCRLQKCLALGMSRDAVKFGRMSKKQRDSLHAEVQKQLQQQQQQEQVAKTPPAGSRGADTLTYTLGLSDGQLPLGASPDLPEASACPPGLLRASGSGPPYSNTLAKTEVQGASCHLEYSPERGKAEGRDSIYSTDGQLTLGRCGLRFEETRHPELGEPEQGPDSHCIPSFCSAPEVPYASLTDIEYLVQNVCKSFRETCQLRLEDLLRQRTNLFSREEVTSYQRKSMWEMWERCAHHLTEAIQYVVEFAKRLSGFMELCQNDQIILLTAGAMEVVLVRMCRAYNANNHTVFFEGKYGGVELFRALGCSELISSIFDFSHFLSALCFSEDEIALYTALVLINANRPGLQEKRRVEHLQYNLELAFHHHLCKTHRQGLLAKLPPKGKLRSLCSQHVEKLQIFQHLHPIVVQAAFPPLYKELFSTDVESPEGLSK
measurement description: qHTS for inhibitors of ROR gamma transcriptional activity; further: nearly all actives have a fitted effect of over 60% in size
settings: Drosophila S2 Gal4-RORgamma UAS-luciferase reporter, 20 h; series mostly up to 53.6 µM
Hit rate of the full screen: of about 310,000 compounds, about 17,000 (5.5%) were called active. Not shown: some 11% with an inconclusive outcome. The call rests on the fitted dose curve; in most records, active means well fitted inhibition curve with a large enough effect; inconclusive means small, poorly fitted or top-dose-only effect, or effect the other way; inactive means no such curve, though single readings can be large or run the other way. This is one part of a sample in which actives are shown more often than they occur.
Log the outcome using a class from active, inactive

Answered examples (3):
1. C=C(C)CNC(=S)/N=c1\scc(C)n1CC :: active
2. COc1cccc(OC)c1C(=O)NC(=S)Nc1ccc(N2CCOCC2)c(Cl)c1 :: active
3. CCn1c(=S)[nH]c2sc3c(c2c1=O)CCCCC3 :: active

Task item: # fetch the recorded call for Cc1ccc(C2NC(=S)NC3=C2N2CCC3CC2)cc1 (centres undefined) here
Reply: active

Task item: How did this test come out for `Oc1ccc(N=Nc2nccs2)c(O)c1` ?
Reply: active

Task item: Check the results log: what was the call for `Cc1cccc(CN2CCC(n3nccc3NC(=O)c3ccccc3C)CC2)n1` ?
Reply: inactive

Task item: So what was the verdict on `CN(C)c1ccc(/C=C2\NC(=S)N(Cc3ccccc3)C2=O)cc1` in this test?
Reply: active

Task item: I'd appreciate the recorded outcome for `Cc1ccc(/C=C2\SC(=S)N(CCC(=O)Nc3ccc(O)cc3)C2=O)cc1` from this test.
Reply: inactive

Task item: Hello, I am checking results. What call was entered for `CCOC(=O)c1sc2nc(C)[nH]c(=O)c2c1C` ?
Reply: inactive

Task item: Could you kindly confirm the outcome this assay logged for `O=C(COC(=O)c1ccc(N2CCCC2=O)cc1)c1ccc(OC(F)F)cc1` ?
Reply: inactive

Task item: Just curious, what result did `CC(=O)N1CCC(C(=O)OCc2ccc(Cl)cc2)(c2ccccc2)CC1` get here?
Reply: inactive

Task item: How did this test come out for `CC1=NN(Cc2ccccc2)C(=O)/C1=C/c1ccc(N(C)C)cc1` ?
Reply: inactive

Task item: Tell me the assay call for `COc1ccccc1OCC(=O)Nc1c2c(nn1-c1ccc(F)cc1)CS(=O)(=O)C2` please.
Reply: inactive

Task item: Hey, what did the test say about O=S(=O)(NC1CCCCC1N1CCCCC1)c1ccc(Cl)cc1 (centres undefined) ?
Reply: inactive

Task item: Check the results log: what was the call for `Cn1c(CC(=O)Nc2ccccc2)nnc1SCC(=O)c1ccccc1` ?
Reply: active

Task item: What did the test return for `Cc1csc(=Nc2ccccc2)n1CCO` ?
Reply: inactive

Task item: Answer briefly: the call reported for `O=C(O)COc1ccc(-c2nccc(-c3cccs3)n2)cc1` in this assay.
Reply: active

Task item: Given `CC/C(=N\NC(=S)NC(C)C)c1ccc(OC(F)F)cc1` , state the outcome it received in this test.
Reply: active

Task item: What did this assay record as the result for `O=C(CCCN1C(=O)/C(=C/c2ccccc2)SC1=S)Nc1ccc(O)cc1` ?
Reply: active

Task item: Outcome logged for CCCCC1(C(=O)OCC)NC(c2ccc(O)cc2)C2C(=O)N(c3ccccc3)C(=O)C21 (centres undefined) in this assay:
Reply: inactive

* * *

target under test: Nuclear receptor ROR-gamma (Mus musculus)
measurement description: qHTS for inhibitors of ROR gamma transcriptional activity; further: nearly all actives have a fitted effect of over 60% in size
settings: Drosophila S2 Gal4-RORgamma UAS-luciferase reporter, 20 h; series mostly up to 53.6 µM
The whole screen tested about 310,000 compounds, of which about 17,000 (5.5%) were called active. Inconclusive results (about 11%) are left out. Calls come from the whole dose curve; as a rule, active = well fitted inhibition curve with a large enough effect; inconclusive = small, poorly fitted or top-dose-only effect, or effect the other way; inactive = no such curve, though single readings can be large or run the other way. This excerpt belongs to a sample that is enriched for actives.
Entry note: the call must match one of active, inactive

Completed entries (count: 10):
1) COc1ccc(Cl)cc1NS(=O)(=O)c1cccc(C(=O)NCC2CCCO2)c1 (stereo not given) :: inactive
2) COc1ccc(-c2cc(C(=O)N3CCN(Cc4ccc5c(c4)OCO5)CC3)on2)cc1OC :: inactive
3) COC(=O)Cc1ccc(Oc2ncc(C(F)(F)F)cc2Cl)cc1 :: inactive
4) CCOC(=O)c1c(-c2ccccc2)csc1NC(=S)NC(=O)c1ccccc1 :: active
5) COc1ccccc1-n1cn[nH]c1=S :: inactive
6) CCOC(=O)c1c(-c2ccc(-c3ccccc3)cc2)csc1NC(=O)CCC(=O)O :: inactive
7) Cc1cccc2c1cnn2C(=O)CCC(=O)NC1CCCCC1 :: inactive
8) Cc1ccc2cc(C)c(N3CCN(c4ccc(F)cc4)CC3)nc2c1 :: inactive
9) COc1ccc(-c2csc(-c3cccs3)n2)cc1OC :: inactive
10) CC(NC(=S)Nc1ccc(S(N)(=O)=O)cc1)c1ccc2c(c1)OCO2 (stereo not given) :: inactive

Task item: Give the logged outcome of this assay for the following compound: `Cc1ccc2c(c1)c1ncnc(N3CCc4ccccc4C3)c1n2C`
Reply: active

Task item: Just curious, what result did `O=C(Nc1cccc(NC(=O)c2cccc(F)c2)c1)c1ccccc1` get here?
Reply: inactive

Task item: Record lookup: outcome of this test for `Cc1cc(C(F)(F)F)nc(SCC(=O)Nc2nccs2)n1` ?
Reply: inactive

Task item: For `COc1cccc(CNn2cn[nH]c2=S)c1OCc1ccccc1` , what call appears in the results of this test?
Reply: active

Task item: Give the logged outcome of this assay for the following compound: `O=C(Nc1ccc(O)cc1)c1ccc(NC(=O)c2ccco2)cc1`
Reply: inactive

Task item: I would be grateful if you could indicate the recorded call for `N#Cc1ccc(S(=O)(=O)NCC(=O)OCC(=O)NCCc2ccccc2)cc1` .
Reply: inactive

Task item: In this assay, the call recorded for `COc1ccc(-c2csc3nc(-c4ccccc4F)oc(=O)c23)cc1OC` was what?
Reply: active

Task item: What did the test return for `CCOC(=O)[C@H]1[C@H]2COc3cc(OC)ccc3[C@@H]2N2C(=O)N(c3ccc(Br)cc3)C(=O)[C@@]12C` ?
Reply: inactive

Task item: In this assay, the call recorded for `CCOC(=O)C1=C(NC(=S)NC(=O)c2ccccc2)c2ccccc2CC1(C)C` was what?
Reply: active

Task item: Hi, sorry to bother you, what did the test record for CCc1ccc(OCC2c3cc(OC)c(OC)cc3CCN2C(C)=O)cc1 (stereo not given) ?
Reply: inactive

Task item: Recorded test outcome, item `COc1cc2ccccc2cc1C(=O)Nc1nc(C)c(C(C)=O)s1`
Reply: inactive

Task item: For COc1ccc(C2/C(=C(/O)c3ccccc3)C(=O)C(=O)N2C)c(OC)c1 (stereo not given) , which call appears in the assay record?
Reply: inactive

Task item: Identify the outcome logged in this assay for the compound shown: C=CC(COCc1ccccc1)N(Cc1ccccc1)S(=O)(=O)c1ccccc1Br (stereo not given)
Reply: active

Task item: Record lookup: outcome of this test for CC(NC(=S)Nc1ccc(OC(F)F)cc1)c1ccc(F)cc1 (stereo not given) ?
Reply: active

Task item: State the result this test recorded for `O=C(O)/C=C/C(=O)Nc1ccc(F)cc1F` .
Reply: inactive

Task item: Just curious, what result did `C/C(CC(C)C)=N\Oc1nc(C)cc(C)n1` get here?
Reply: active

Task item: Call for entry COC(c1ccccc1)(c1ccccc1)C(Oc1nc(C)cc(C)n1)C(=O)O (stereo not given) :
Reply: inactive

Task item: Which outcome was entered for the compound COc1ccccc1N1CC(C(=O)Nc2nnc(SCC(=O)NC(C)C)s2)CC1=O (stereo not given) in this test?
Reply: inactive

Task item: // return assay outcome for `CCOC(=O)c1c(-c2cccc(C)c2)csc1NC(=O)c1c(-c2ccccc2)noc1C`
Reply: inactive

Task item: # lookup: test call for O=C1CCC(C(=O)Nc2ccc(OC(F)F)cc2)N1 (stereo not given)
Reply: inactive

Task item: Test call for this compound, please: `O=C(CN1CCC(O)(c2cccc(C(F)(F)F)c2)CC1)NCCc1ccccc1`
Reply: inactive

Task item: What was the test verdict on CC1CCCCC1NC(=O)CCS(=O)(=O)c1ccc2c(c1)NC(=O)CO2 (stereo not given) ?
Reply: inactive
